Target: T1, human MIC-1 receptor (hGFRAL, GDNF family receptor alpha like), full length (human, UniProt Q6UXV0 19-394)
T1 sequence (looked up): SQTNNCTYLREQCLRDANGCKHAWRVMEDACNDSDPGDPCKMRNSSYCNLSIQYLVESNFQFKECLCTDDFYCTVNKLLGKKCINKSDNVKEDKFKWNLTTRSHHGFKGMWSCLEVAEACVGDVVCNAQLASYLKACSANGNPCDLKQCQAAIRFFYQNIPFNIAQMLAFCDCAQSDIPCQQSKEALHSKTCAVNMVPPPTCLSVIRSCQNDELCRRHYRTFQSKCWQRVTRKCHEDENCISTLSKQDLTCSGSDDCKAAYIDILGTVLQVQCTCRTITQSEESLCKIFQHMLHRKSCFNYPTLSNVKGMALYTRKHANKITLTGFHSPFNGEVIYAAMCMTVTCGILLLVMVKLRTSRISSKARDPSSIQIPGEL
Experiment: cell-based or functional assay
Parameter threshold = 70 pM. Response is Y when Luciferase + 0.1% HSA NNDK EC50 (pM) meets or exceeds it, else N.

{"columns": ["binder", "className"],
 "data": [
  ["SEPATSGSETPGTSESACPESGPGTSTEPSEG-MIC-1, des-N3, M57L, M86L (Cys mutation T(-15)C) (ligand, homodimer; no protractor) SEPATSGSETPGTSESACPESGPGTSTEPSEGARGDHCPLGPGRCCRLHTVRASLEDLGWADWVLSPREVQVTMCIGACPSQFRAANLHAQIKTSLHRLKPDTVPAPCCVPASYNPLVLIQKTDTGVSLQTYDDLLAKDCHCI", "Y"],
  ["Compound 08 (ligand, Cys-3 (residue 30 of SEQ ID NO: 293): S{Beta}-[2-[2-[[2-[2-[2-[[2-[2-[2-[[(4S)-4-carboxy-4-(17-carboxyheptadecanoylamino)butanoyl]amino]ethoxy]ethoxy]acetyl]amino]ethoxy]ethoxy]acetyl]amino]ethylamino]-2-oxoethyl]Cys (protractor of Example 10.4), homodimer, two protractors per dimer) SEPATSGSETPGTSESATPESGPGTSTEPCEGARGDHCPLGPGRCCRLHTVRASLEDLGWADWVLSPREVQVTMCIGACPSQFRAANLHAQIKTSLHRLKPDTVPAPCCVPASYNPLVLIQKTDTGVSLQTYDDLLAKDCHCI", "Y"],
  ["Compound 03 (ligand, Cys-27 (residue 6 of SEQ ID NO: 291): S{Beta}-[2-[2-[[2-[2-[2-[[2-[2-[2-[[(4S)-4-carboxy-4-(15-carboxypentadecanoylamino)butanoyl]amino]ethoxy]ethoxy]acetyl]amino]ethoxy]ethoxy]acetyl]amino]ethylamino]-2-oxoethyl]Cys (protractor of Example 10.2), homodimer, two protractors per dimer) SEPATCGSETPGTSESATPESGPGTSTEPSEGARGDHCPLGPGRCCRLHTVRASLEDLGWADWVLSPREVQVTMCIGACPSQFRAANMHAQIKTSLHRLKPDTVPAPCCVPASYNPMVLIQKTDTGVSLQTYDDLLAKDCHCI", "Y"],
  ["Compound 02 (ligand, Cys-27 (residue 6 of SEQ ID NO: 291): S{Beta}-[2-[2-[[2-[2-[2-[[2-[2-[2-[[(4S)-4-carboxy-4-(17-carboxyheptadecanoylamino)butanoyl]amino]ethoxy]ethoxy]acetyl]amino]ethoxy]ethoxy]acetyl]amino]ethylamino]-2-oxoethyl]Cys, homodimer, two protractors per dimer) SEPATCGSETPGTSESATPESGPGTSTEPSEGARGDHCPLGPGRCCRLHTVRASLEDLGWADWVLSPREVQVTMCIGACPSQFRAANMHAQIKTSLHRLKPDTVPAPCCVPASYNPMVLIQKTDTGVSLQTYDDLLAKDCHCI", "Y"],
  ["Macrophage Inhibitory Cytokine-1 (MIC-1), human wild type, monomer sequence SEQ ID NO:1 (ligand, covalently linked homodimer; 112 amino acid monomer = residues 197-308 of the precursor; also called wtMIC-1) ARNGDHCPLGPGRCCRLHTVRASLEDLGWADWVLSPREVQVTMCIGACPSQFRAANMHAQIKTSLHRLKPDTVPAPCCVPASYNPMVLIQKTDTGVSLQTYDDLLAKDCHCI", "N"],
  ["Compound 17 (ligand, Cys-29 (residue 4 of SEQ ID NO: 288): S{Beta}-[2-[2-[[2-[2-[2-[[2-[2-[2-[[(4S)-4-carboxy-4-(16-sulfohexadecanoylamino)butanoyl]amino]ethoxy]ethoxy]acetyl]amino]ethoxy]ethoxy]acetyl]amino]ethylamino]-2-oxoethyl]Cys (protractor of Example 10.6), homodimer, two protractors per dimer) SEPCTSGSETPGTSESATPESGPGTSTEPSEGARGDHCPLGPGRCCRLHTVRASLEDLGWADWVLSPREVQVTMCIGACPSQFRAANMHAQIKTSLHRLKPDTVPAPCCVPASYNPMVLIQKTDTGVSLQTYDDLLAKDCHCI", "N"],
  ["SEPCTSGSETPGTSESATPESGPGTSTEPSEG-MIC-1, des-N3, M57L, M86L (Cys mutation A(-29)C) (ligand, homodimer; no protractor) SEPCTSGSETPGTSESATPESGPGTSTEPSEGARGDHCPLGPGRCCRLHTVRASLEDLGWADWVLSPREVQVTMCIGACPSQFRAANLHAQIKTSLHRLKPDTVPAPCCVPASYNPLVLIQKTDTGVSLQTYDDLLAKDCHCI", "Y"],
  ["Compound 20 (ligand, Cys-29 (residue 4 of SEQ ID NO: 288): S{Beta}-[2-[[(1S)-1-carboxy-5-[[2-[2-[2-[[2-[2-[2-[[(4S)-4-carboxy-4-[12-(4-carboxyphenoxy)dodecanoylamino]butanoyl]amino]ethoxy]ethoxy]acetyl]amino]ethoxy]ethoxy]acetyl]amino]pentyl]amino]-2-oxoethyl]Cys (protractor of Example 10.9), homodimer, two protractors per dimer) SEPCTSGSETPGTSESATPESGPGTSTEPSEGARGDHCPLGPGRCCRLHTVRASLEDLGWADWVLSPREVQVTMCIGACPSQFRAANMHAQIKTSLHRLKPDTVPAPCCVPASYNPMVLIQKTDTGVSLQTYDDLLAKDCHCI", "Y"],
  ["SEPCTSGSETPGTSESATPESGPGTSTEPSEG-MIC-1, des-N3 (Cys mutation A(-29)C) (ligand, homodimer; no protractor) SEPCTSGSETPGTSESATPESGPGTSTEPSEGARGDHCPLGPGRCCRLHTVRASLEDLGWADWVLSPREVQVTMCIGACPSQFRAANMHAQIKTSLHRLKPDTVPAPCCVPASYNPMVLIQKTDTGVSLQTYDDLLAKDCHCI", "N"],
  ["Compound 11 (ligand, Cys-29 (residue 4 of SEQ ID NO: 290): S{Beta}-[2-[2-[[2-[2-[2-[[2-[2-[2-[[(4S)-4-carboxy-4-(17-carboxyheptadecanoylamino)butanoyl]amino]ethoxy]ethoxy]acetyl]amino]ethoxy]ethoxy]acetyl]amino]ethylamino]-2-oxoethyl]Cys (protractor of Example 10.4), homodimer, two protractors per dimer) SEPCTSGSETPGTSESATPESGPGTSTEPSEGARGDHCPLGPGRCCRLHTVRASLEDLGWADWVLSPREVQVTMCIGACPSQFRAANLHAQIKTSLHRLKPDTVPAPCCVPASYNPLVLIQKTDTGVSLQTYDDLLAKDCHCI", "N"],
  ["Compound 01 (ligand, Cys-29 (residue 4 of SEQ ID NO: 288): S{Beta}-[2-[2-[[2-[2-[2-[[2-[2-[2-[[(4S)-4-carboxy-4-(17-carboxyheptadecanoylamino)butanoyl]amino]ethoxy]ethoxy]acetyl]amino]ethoxy]ethoxy]acetyl]amino]ethylamino]-2-oxoethyl]Cys (protractor of Example 10.4), homodimer, two protractors per dimer) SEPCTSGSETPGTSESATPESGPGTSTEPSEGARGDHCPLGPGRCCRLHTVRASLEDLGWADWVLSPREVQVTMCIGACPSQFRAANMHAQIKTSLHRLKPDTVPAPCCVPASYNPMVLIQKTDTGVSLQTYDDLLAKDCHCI", "N"],
  ["Compound 19 (ligand, Cys-29 (residue 4 of SEQ ID NO: 288): S{Beta}-[2-[[(1S)-1-carboxy-5-[[2-[2-[2-[[2-[2-[2-[[(4S)-4-carboxy-4-[10-(4-carboxyphenoxy)decanoylamino]butanoyl]amino]ethoxy]ethoxy]acetyl]amino]ethoxy]ethoxy]acetyl]amino]pentyl]amino]-2-oxoethyl]Cys (protractor of Example 10.8), homodimer, two protractors per dimer) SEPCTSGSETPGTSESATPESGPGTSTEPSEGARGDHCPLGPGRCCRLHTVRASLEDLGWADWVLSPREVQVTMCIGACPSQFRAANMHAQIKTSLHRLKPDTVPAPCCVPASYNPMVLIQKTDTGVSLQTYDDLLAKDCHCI", "N"],
  ["Compound 18 (ligand, Cys-29 (residue 4 of SEQ ID NO: 288): S{Beta}-[2-[[(5S)-5-carboxy-5-[[2-[2-[2-[[2-[2-[2-[4-[17-(1H-tetrazol-5-yl)heptadecanoylsulfamoyl]butanoylamino]ethoxy]ethoxy]acetyl]amino]ethoxy]ethoxy]acetyl]amino]pentyl]amino]-2-oxoethyl]Cys (protractor of Example 10.7), homodimer, two protractors per dimer) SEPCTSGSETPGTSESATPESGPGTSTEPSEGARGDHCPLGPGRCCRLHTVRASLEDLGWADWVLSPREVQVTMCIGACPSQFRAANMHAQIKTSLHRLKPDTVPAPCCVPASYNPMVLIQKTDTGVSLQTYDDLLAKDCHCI", "N"],
  ["SEPATSGSETPGTSESATPESGPGTSTEPCEG-MIC-1, des-N3, M57L, M86L (Cys mutation S(-3)C) (ligand, homodimer; no protractor) SEPATSGSETPGTSESATPESGPGTSTEPCEGARGDHCPLGPGRCCRLHTVRASLEDLGWADWVLSPREVQVTMCIGACPSQFRAANLHAQIKTSLHRLKPDTVPAPCCVPASYNPLVLIQKTDTGVSLQTYDDLLAKDCHCI", "Y"]
]}
